target-or-system: human delta-like ligand 3 (DLL3) on SHP77 cells (human) (UniProt Q9NYJ7)
Sequence (Q9NYJ7 27-618, stated change not applied): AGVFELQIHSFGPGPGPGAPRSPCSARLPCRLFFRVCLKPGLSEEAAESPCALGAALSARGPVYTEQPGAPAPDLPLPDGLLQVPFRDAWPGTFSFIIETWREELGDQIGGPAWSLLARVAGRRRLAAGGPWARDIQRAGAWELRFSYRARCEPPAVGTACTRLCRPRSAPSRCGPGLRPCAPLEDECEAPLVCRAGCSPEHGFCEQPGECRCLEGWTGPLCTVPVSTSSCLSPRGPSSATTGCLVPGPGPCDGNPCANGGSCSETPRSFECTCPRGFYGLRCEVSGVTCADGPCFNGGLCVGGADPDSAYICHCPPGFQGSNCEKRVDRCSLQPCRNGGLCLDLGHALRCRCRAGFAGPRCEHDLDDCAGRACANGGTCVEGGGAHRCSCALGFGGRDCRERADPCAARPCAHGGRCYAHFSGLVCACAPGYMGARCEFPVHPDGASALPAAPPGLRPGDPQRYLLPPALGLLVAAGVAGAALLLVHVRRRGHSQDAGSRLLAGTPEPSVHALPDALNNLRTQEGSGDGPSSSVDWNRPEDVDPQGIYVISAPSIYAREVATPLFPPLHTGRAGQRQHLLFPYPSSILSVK
assay-protocol: FACS on SHP77 cells
assay-metric: MFI at 100 nM (MFI)
Give the quantity in MFI, number only.

These solved cases illustrate the format of a correct answer.
binder	unit-of-measure	result-number
Hab014VL3VH1-hFc (scFv, part only; not given: VL-VH linker and human IgG1 Fc, V domains shown, not shown: another chain or arm of the molecule; a dimerising Fc or GST; small tags and cut ends) VL: DIVMTQSPDSLAVSLGERATINCKASEDIYNRLAWYQQKPGQTPKLLISGATSLETGVPDRFSGSGSGKDFTLTISSLQAEDVAVYYCQQYWSLPWTFGGGTKVEIK VH: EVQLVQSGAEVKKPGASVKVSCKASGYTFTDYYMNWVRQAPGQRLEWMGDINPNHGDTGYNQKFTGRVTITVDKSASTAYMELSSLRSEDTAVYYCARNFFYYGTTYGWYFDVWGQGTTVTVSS	MFI	1120
Hab015VL4VH1b-hFc (scFv, part only; not given: VL-VH linker and human IgG1 Fc, V domains shown, not shown: another chain or arm of the molecule; a dimerising Fc or GST; small tags and cut ends) VL: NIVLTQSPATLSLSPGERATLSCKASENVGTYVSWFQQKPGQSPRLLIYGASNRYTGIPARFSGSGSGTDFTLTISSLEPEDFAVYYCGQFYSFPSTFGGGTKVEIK VH: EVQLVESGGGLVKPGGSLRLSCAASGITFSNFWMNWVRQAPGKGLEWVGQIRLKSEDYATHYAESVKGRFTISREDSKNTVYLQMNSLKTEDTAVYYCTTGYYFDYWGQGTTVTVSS	MFI	1190

Please look at the following binder next.
Requested read-out: MFI at 100 nM. Entry: Hab015VL5VH5a-hFc (scFv, part only; not given: scFv linker and human IgG1 Fc, V domains shown, not shown: another chain or arm of the molecule; a dimerising Fc or GST; small tags and cut ends) VL: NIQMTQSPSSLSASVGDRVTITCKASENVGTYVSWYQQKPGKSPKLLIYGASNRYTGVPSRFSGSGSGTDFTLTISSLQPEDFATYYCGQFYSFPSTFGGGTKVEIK VH: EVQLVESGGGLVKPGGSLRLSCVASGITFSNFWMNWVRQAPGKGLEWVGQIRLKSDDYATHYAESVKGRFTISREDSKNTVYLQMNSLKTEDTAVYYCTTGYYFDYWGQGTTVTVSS
1060
